# assay_details: NCI Yeast Anticancer Drug Screen. Data for the mlh1 rad18 strain (AID 175)
# condition_context: S. cerevisiae mlh1 rad18 strain growth inhibition; at 50.0 µM; stronger effect = higher value
Compounds without any hit were thinned out: in the full panel of roughly 79,000, 15% have a hit.
# reported growth inhibition; entries follow
Entry rule: numbers only, all in %.

Known results for compounds:
[
  {
    "compound": "O=C(O)C1CCCN1Cc1cc2ccccc2c2ccccc12 (configuration not stated)",
    "u": "%",
    "measured_result": 26.5
  },
  {
    "compound": "COC(=O)CC1OCC=C2CN3CCC45C6=CC(=O)C(=O)C([N+](=O)[O-])=C6NC4C1C2CC35 (configuration not stated)",
    "u": "%",
    "measured_result": -17.8
  },
  {
    "compound": "CN(C)c1ccc(N=Cc2ccc3c(c2)OCO3)cc1",
    "u": "%",
    "measured_result": -0.05
  },
  {
    "compound": "O=C(Nc1ccc2ccccc2c1)c1ccc(Cl)c(Cl)c1",
    "u": "%",
    "measured_result": 27.4
  },
  {
    "compound": "CC(C)NC(=O)c1ccccc1S(=O)c1ccccc1C(=O)NC(C)C",
    "u": "%",
    "measured_result": 7.25
  }
]

[ask] // query growth inhibition value for entry NC(C(=O)O)C1C=CCCC1 (configuration not stated)
[reply] 6.85

[ask] // query growth inhibition value for entry CC(C)CC(C)OB(OC(C)CC(C)C)OC(C)CC(C)C (configuration not stated)
[reply] -14.6

###

# assay_details: NCI Yeast Anticancer Drug Screen. Data for the cln2 rad14 strain (AID 165);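 note: 0% = growth equal to vehicle treated cultures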
# condition_context: S. cerevisiae cln2 rad14 strain, at 50.0 µM, stronger effect = higher value
This is part of a sample that, as a whole, favours compounds with a hit. Of some 79,000 tested, about 15% had one in any assay.
measurement_label: growth inhibition (%)
Entry rule: numbers only, all in %.

Known results for compounds:
[
  {
    "compound": "N#CC1CNCCC1=N (stereo not given)",
    "growth inhibition, %": -1.1
  },
  {
    "compound": "O=C(O)CCC1(C(=O)O)NCCc2c1[nH]c1ccccc21 (stereo not given)",
    "growth inhibition, %": 8.55
  },
  {
    "compound": "C=Nc1ccc([N+](=O)[O-])c(N=C)c1",
    "growth inhibition, %": -18
  }
]

[ask] // query growth inhibition value for entry Cc1ccc(OP2(Oc3ccc(C)cc3)=NP(Oc3ccc(C)cc3)(Oc3ccc(C)cc3)=NP(Oc3ccc(C)cc3)(Oc3ccc(C)cc3)=N2)cc1
[reply] -4.5

[ask] // query growth inhibition value for entry COC(=O)NCP(=O)(CNC(=O)OC)CNC(=O)OC
[reply] 8.65

[ask] // query growth inhibition value for entry CCC(CCC(C)C1CCC2C3CC=C4CC(OC(=O)Nc5ccccc5)CCC4(C)C3CCC12C)C(C)C (stereo not given)
[reply] -38.5

[ask] // query growth inhibition value for entry COc1ccc(/C(=N/NS(=O)(=O)c2ccc([N+](=O)[O-])cc2)C2COC(=O)C2)cc1OC (stereo not given)
[reply] -13.4

###

# assay_details: NCI Yeast Anticancer Drug Screen. Data for the cln2 rad14 strain (AID 165);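 note: 0% = growth equal to vehicle treated cultures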
# condition_context: S. cerevisiae cln2 rad14 strain, at 50.0 µM, stronger effect = higher value
The panel holds about 79,000 compounds, 15% with a hit somewhere; the sample as a whole holds those more often.
# reported growth inhibition; entries follow
Entry rule: numbers only, all in %.

Known results for compounds:
[
  {
    "compound": "O=C(CCc1ccccc1)NC(=S)Nc1cccc([N+](=O)[O-])c1",
    "u": "%",
    "growth inhibition": -13.8
  },
  {
    "compound": "COc1cc2c(c(OC)c1OC)-c1ccc(SC)c(=O)cc1[C@@H](NC(=O)CO)CC2",
    "u": "%",
    "growth inhibition": 19.6
  },
  {
    "compound": "NC(=O)C1=NNc2ccccc2C(=O)N1c1ccccc1",
    "u": "%",
    "growth inhibition": 9.9
  },
  {
    "compound": "C/C(=N\\N=C(/C)c1ccc(Br)s1)c1ccc(Br)s1",
    "u": "%",
    "growth inhibition": -18.3
  },
  {
    "compound": "Cn1c(=O)c2c(nc(C3CC3)n2C)n(C)c1=O",
    "u": "%",
    "growth inhibition": -16.6
  },
  {
    "compound": "CCOC(=O)C1=CCOc2cc(N(C)C)ccc21",
    "u": "%",
    "growth inhibition": 32.4
  },
  {
    "compound": "CC(=O)OCC1OC(n2cc(I)c(=O)[nH]c2=O)C(OC(C)=O)C(OC(C)=O)C1OC(C)=O (stereo unspecified)",
    "u": "%",
    "growth inhibition": -27.4
  },
  {
    "compound": "CC(=O)NC1=C(Sc2ccc(Cl)cc2)C(=O)c2ccccc2C1=O",
    "u": "%",
    "growth inhibition": -56.4
  }
]

[ask] // query growth inhibition value for entry CCOC(=O)C1CSC(c2ccccc2)=N1 (stereo unspecified)
[reply] -4.25

[ask] // query growth inhibition value for entry Fc1cccc(-c2nnc(-c3cccc(F)c3)o2)c1
[reply] -38

[ask] // query growth inhibition value for entry CCOC(=O)c1ccc(=O)n2c1[nH]c1ccccc12
[reply] -0.45

All values here come from PubChem BioAssay (NCI).
